protocolDetails: p53 small molecule agonists, cell-based qHTS assay with human liver microsomes: qHTS cell viability counter screen (AID 1963579); further: nearly all actives have a fitted effect of over 45% in size
experimentalConditions: p53RE-bla HCT-116 viability, ATP luminescence, 16 h, HLM; series mostly up to 66 µM
Records with an inconclusive call do not appear. Active and inactive are the calls of the source. The call rests on the fitted dose curve. Bridge positions count the residues as written; N and C are the ends. Square brackets hold non-standard residues; d marks the D form. Peptide text beside a SMILES is read from it. hArg = N=C(N)NCCCC[C@H](N)C(=O)O; Mpa = O=C(O)CCS
Select the matching outcome among YES (active), NO (inactive)

Prompt: Check the results log: what was the call for Nc1ccc2cc(S(=O)(=O)O)cc(O)c2c1N=Nc1ccccc1C(F)(F)F ?
Completion: NO

Prompt: Check the results log: what was the call for NC(=O)[C@@H]1CSSCCC(=O)N[C@@H](CCCCN=C(N)N)C(=O)NCC(=O)N[C@@H](CC(=O)O)C(=O)N[C@@H](Cc2c[nH]c3ccccc23)C(=O)N2CCC[C@H]2C(=O)N1 ([Mpa][hArg]GDWPC-NH2; disulfide 1-7) ?
Completion: NO

Prompt: Check the results log: what was the call for NCCc1ccn[nH]1 ?
Completion: NO

Prompt: Check the results log: what was the call for O=C1NC(=O)[C@@H]2CC=CC[C@H]12 ?
Completion: NO

Prompt: Check the results log: what was the call for CCCC1CCOC(C)S1 (stereo unspecified) ?
Completion: NO

Prompt: Check the results log: what was the call for CCCCCCCCCC[N+](C)(CCCCCCCCCC)CCC[Si](OC)(OC)OC ?
Completion: YES

Prompt: Check the results log: what was the call for Cc1cc(O)c2c(O)c3c(O)cccc3cc2c1 ?
Completion: NO

Prompt: Check the results log: what was the call for CCCCNC(=S)NCCCC ?
Completion: NO

Prompt: Check the results log: what was the call for CC(C)c1ccc2cc(C(C)C)ccc2c1 ?
Completion: NO

Prompt: Check the results log: what was the call for O=C1C=CC(=O)N1c1ccc(Cc2ccc(N3C(=O)C=CC3=O)cc2)cc1 ?
Completion: YES

Prompt: Check the results log: what was the call for c1ccc2sc(SN(C3CCCCC3)C3CCCCC3)nc2c1 ?
Completion: NO

====

protocolDetails: p53 small molecule agonists, cell-based qHTS assay (AID 1963582)
experimentalConditions: HCT-116 p53RE-bla reporter, beta-lactamase FRET ratio, 16 h; series mostly up to 66 µM
Results filed as inconclusive are left out. Calls of active or inactive are those of the source. Calls come from the whole dose curve; as a rule, active = well fitted activation curve with a large enough effect in the signal ratio in the repeat runs (not every such curve was filed as active); inconclusive = weak or mixed curves; inactive = flat fitted curve, though single readings scatter; the % refers to the signal ratio.
experimentalReadout: activation

# count of solved cases: 8
                                   molecule  observedvalue
0                 CC(=O)CCc1ccc(OC(C)=O)cc1       inactive
1                          CC(=O)c1ccc[nH]1       inactive
2      CC(C)=CCC[C@](C)(O)[C@@H]1CC=C(C)CC1       inactive
3  C(=C\c1ccccc1)/CN1CCN(C(c2ccccc2)c2ccccc2)CC1       inactive
4  CN(C)CCOC(c1ccccc1)c1ccc(Br)cc1 (centres undefined)       inactive
5                              CC(C)CCCCCCN       inactive
6             Cc1c(C(=O)O)cccc1[N+](=O)[O-]       inactive
7              c1ccc(C[n+]2cccc3ccccc32)cc1       inactive

Prompt: Recorded activation for CC(=O)c1ccc2c(c1)[C@H](NC(=O)c1ccc(F)cc1)[C@@H](O)C(C)(C)O2 , please?
Completion: inactive

Prompt: Recorded activation for COC(=O)[C@@H](N)Cc1ccc(O)c(O)c1 , please?
Completion: inactive

Prompt: Recorded activation for C1CCC(C(CC2CCCCN2)C2CCCCC2)CC1 (centres undefined) , please?
Completion: inactive

Prompt: Recorded activation for Sc1nc2ccccc2s1 , please?
Completion: inactive

Prompt: Recorded activation for Cc1ccc(NC(=O)c2ccc(CN3CCN(C)CC3)cc2)cc1Nc1nccc(-c2cccnc2)n1 , please?
Completion: inactive

====

experimentalTarget: Beta-2 adrenergic receptor (Homo sapiens) (UniProt P07550)
Sequence (P07550 whole entry, looked up): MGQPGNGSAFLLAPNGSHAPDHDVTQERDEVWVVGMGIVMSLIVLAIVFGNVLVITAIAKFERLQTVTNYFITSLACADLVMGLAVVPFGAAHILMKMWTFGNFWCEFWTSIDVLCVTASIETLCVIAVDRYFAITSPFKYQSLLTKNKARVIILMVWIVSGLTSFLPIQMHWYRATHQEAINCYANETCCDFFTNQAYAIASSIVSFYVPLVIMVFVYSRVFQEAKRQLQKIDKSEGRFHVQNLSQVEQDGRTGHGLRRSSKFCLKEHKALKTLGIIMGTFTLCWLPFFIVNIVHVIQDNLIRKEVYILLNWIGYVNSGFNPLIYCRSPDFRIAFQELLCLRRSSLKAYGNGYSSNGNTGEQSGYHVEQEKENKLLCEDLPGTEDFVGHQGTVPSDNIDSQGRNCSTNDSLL
protocolDetails: Adrenergic beta2 receptor (ADRB2) small molecule antagonists, cell-based qHTS assay (AID 1963592); further: nearly all actives have a fitted effect of over 50% in size
experimentalConditions: CHO-ADRB2 cells, isoproterenol-stimulated cAMP HTRF ratio, 0.5 h; series mostly up to 92.4 µM
Records with an inconclusive call do not appear. The source made the active and inactive calls. The call rests on the fitted dose curve.
Select the matching outcome among active, inactive

Examples with answers:
>>> print(df.to_string())
                                   compound                        experimentaltarget  classassignment
0                       CCCC(=O)OCCc1ccccc1  Beta-2 adrenergic receptor (Homo sapiens) (UniProt P07550)         inactive
1  CN1C(CSCC(F)(F)F)Nc2cc(Cl)c(S(N)(=O)=O)cc2S1(=O)=O (stereo unspecified)  Beta-2 adrenergic receptor (Homo sapiens) (UniProt P07550)         inactive
2    CCN(CC)CCNc1ccc(CO)c2sc3ccccc3c(=O)c12  Beta-2 adrenergic receptor (Homo sapiens) (UniProt P07550)           active

Prompt: Check the results log: what was the call for Nc1ccc2c3c(cccc13)-c1ccccc1-2 ?
Completion: inactive

Prompt: Check the results log: what was the call for CC(CC(=O)Cl)CC(C)(C)C (stereo unspecified) ?
Completion: inactive

Prompt: Check the results log: what was the call for O=C(O)CCCCCCCCCCCBr ?
Completion: inactive

====

protocolDetails: p53 small molecule agonists, cell-based qHTS assay with rat liver microsomes: qHTS cell viability counter screen (AID 1963580); further: nearly all actives have a fitted effect of over 45% in size
experimentalConditions: p53RE-bla HCT-116 + rat microsomes, ATP viability, 16 h; series mostly up to 66 µM
Inconclusive results are not listed. Active and inactive are the calls of the source. The call rests on the fitted dose curve.
experimentalReadout: outcome

>>> print(df.to_string())
                                   molecule  observedvalue
0                             CCc1ccc(C)cc1       inactive
1               Cc1c(N)c(=O)n(-c2ccccc2)n1C       inactive
2                                  CNC(C)=O       inactive
3    Clc1ccc(Nc2nnc(Cc3ccncc3)c3ccccc23)cc1       inactive
4                  CC(C)N1C(=O)c2ccccc2C1=O       inactive
5  Cc1ccccc1C(=O)Nc1ccc(C(=O)N2CCCC(O)c3cc(Cl)ccc32)c(C)c1 (stereo not drawn)       inactive

Prompt: Recorded outcome for CCCCC(CC)C(=O)OCCOCCOCCOCCOC(=O)C(CC)CCCC (stereo not drawn) , please?
Completion: inactive

Prompt: Recorded outcome for Nc1nc(Cl)nc2c1ncn2[C@H]1C[C@H](O)[C@@H](CO)O1 , please?
Completion: inactive

Prompt: Recorded outcome for BrCc1cccc(Oc2ccccc2)c1 , please?
Completion: inactive

Prompt: Recorded outcome for NC(=O)N1C(=O)C(C(=O)c2cc(Cl)cs2)c2cc(F)c(Cl)cc21 (stereo not drawn) , please?
Completion: inactive

Prompt: Recorded outcome for S=P(N1CC1)(N1CC1)N1CC1 , please?
Completion: inactive

Prompt: Recorded outcome for CC(C)(C)C1CCCCC1=O (stereo not drawn) , please?
Completion: inactive

Prompt: Recorded outcome for CCCc1ccc(OC)cc1 , please?
Completion: inactive

====

protocolDetails: Nuclear factor erythroid 2-related factor 2/antioxidant responsive element (Nrf2/ARE) small molecule agonists: qHTS cell viability counter screen in human keratinocytes (AID 1919968); further: nearly all actives have a fitted effect of over 55% in size; further: potency means the concentration at half of the fitted maximal effect
experimentalConditions: KeratinoSens HaCaT ARE cells viability, CellTiter-Fluor, 24 h; series mostly up to 92.4 µM
Results filed as inconclusive are left out. The source made the active and inactive calls. Calls follow the shape of the dose curve; as a rule, active = well fitted cell-killing curve with a large enough effect in the repeat runs; inconclusive = weak or mixed curves, or effect the other way; inactive = flat fitted curve, though single readings scatter.
experimentalReadout: Potency

# count of solved cases: 10
                                   compound  experimentalreadout     observedvalue
0                              N=C(N)S(=O)O              Potency          inactive
1  Cc1cc2c(cc1CC(=O)c1sccc1S(=O)(=O)Nc1onc(C)c1Cl)OCO2              Potency  4.22 µM (active)
2       CCCCCC[C@@H](O)C/C=C\CCCCCCCC(=O)OC              Potency          inactive
3                            CCCCOC(=O)CC#N              Potency          inactive
4                O=[N+]([O-])c1ccc2ncccc2c1              Potency          inactive
5                 CCCC(=O)OC(C)(C)Cc1ccccc1              Potency          inactive
6  CN(C)c1ccc(C2(c3ccc(N(C)C)cc3)OC(=O)c3cc(N(C)C)ccc32)cc1              Potency          inactive
7                            Cc1ccc(C#N)cc1              Potency          inactive
8                 CCCCNC1CC(C)(C)NC(C)(C)C1              Potency          inactive
9             O=[N+]([O-])c1cc[n+]([O-])cc1              Potency          inactive

Prompt: Recorded Potency for CCC1(c2cnc[nH]2)Cc2ccccc2C1 , please?
Completion: inactive

The reported numbers originate from PubChem BioAssay (Tox21).
